System: GM-CSFR/JAK2/STAT5 pathway in CSTF-1 cells
Assay: CSTF-1 cell-based reporter assay (beta-lactamase, GM-CSF stimulated)
Details: Homo sapiens; GM-CSF at 2 ng/mL, 4 hours; read-out: Cell Assay: CS TF-1 reporter assay IC50
Property: IC50; scope: individual compounds

Compound: Cc1cc(Nc2nc([C@]3(c4ccc(F)cc4)C[C@@H](O)C3)nc3ccccc23)n[nH]1 [Example 3]
IC50: 100 to 500 nM
--
Compound: Cc1cc(Nc2nc([C@]3(c4ccc(F)cc4)C[C@@H](F)C3)nc3ccccc23)n[nH]1 [Example 2]
IC50: > 500 nM
--
Compound: Cc1cc(Nc2nc([C@]3(c4ccc(F)cc4)C[C@H](O)C3)nc3ccccc23)n[nH]1 [Example 1]
IC50: 100 to 500 nM

Okay, now this compound:
Exercise: Name the recorded IC50 for Cc1cc(Nc2nc(C3(c4ccc(F)cc4)CCOCC3)nc3ccccc23)n[nH]1 [Example 4] .
Key: 100 to 500 nM

* * *

Consider molecules characterized by their pKd with TYK2 (Homo sapiens).
Sequence (P29597 whole entry): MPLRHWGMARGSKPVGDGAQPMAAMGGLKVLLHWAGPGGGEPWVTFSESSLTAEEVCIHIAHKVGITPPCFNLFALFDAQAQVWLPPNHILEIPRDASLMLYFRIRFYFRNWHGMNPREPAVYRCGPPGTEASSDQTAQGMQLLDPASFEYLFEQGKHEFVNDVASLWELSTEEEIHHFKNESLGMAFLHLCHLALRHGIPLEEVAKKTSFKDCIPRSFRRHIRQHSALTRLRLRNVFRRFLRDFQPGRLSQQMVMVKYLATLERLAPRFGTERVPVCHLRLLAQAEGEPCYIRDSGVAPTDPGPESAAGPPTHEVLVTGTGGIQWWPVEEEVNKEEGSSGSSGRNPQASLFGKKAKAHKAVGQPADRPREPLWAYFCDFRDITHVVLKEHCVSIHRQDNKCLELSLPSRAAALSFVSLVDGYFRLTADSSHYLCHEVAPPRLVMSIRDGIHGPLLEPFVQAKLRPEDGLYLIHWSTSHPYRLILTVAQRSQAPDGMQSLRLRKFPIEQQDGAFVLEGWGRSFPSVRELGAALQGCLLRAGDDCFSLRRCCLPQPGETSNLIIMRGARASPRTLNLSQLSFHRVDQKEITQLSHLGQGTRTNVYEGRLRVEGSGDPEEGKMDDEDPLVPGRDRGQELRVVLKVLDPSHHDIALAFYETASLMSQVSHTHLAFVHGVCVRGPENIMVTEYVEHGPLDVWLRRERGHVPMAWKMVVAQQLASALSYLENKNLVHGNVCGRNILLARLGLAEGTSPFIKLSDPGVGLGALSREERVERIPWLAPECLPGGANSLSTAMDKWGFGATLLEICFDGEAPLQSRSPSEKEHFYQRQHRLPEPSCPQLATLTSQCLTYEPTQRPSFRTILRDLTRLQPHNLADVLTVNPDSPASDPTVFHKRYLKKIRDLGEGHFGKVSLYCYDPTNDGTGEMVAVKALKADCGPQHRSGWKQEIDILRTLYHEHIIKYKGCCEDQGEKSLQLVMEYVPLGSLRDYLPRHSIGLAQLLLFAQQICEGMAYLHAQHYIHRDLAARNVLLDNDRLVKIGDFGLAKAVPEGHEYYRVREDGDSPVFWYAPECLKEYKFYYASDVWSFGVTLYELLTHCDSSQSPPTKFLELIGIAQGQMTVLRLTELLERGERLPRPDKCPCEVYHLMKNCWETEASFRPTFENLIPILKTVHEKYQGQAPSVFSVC
pKd: −log10 of the molar value.

Example cases with answers are listed next.
Molecule: Cc1cc(Nc2nc([C@]3(c4ccc(F)cc4)C[C@@H](F)C3)nc3ccccc23)n[nH]1
Value: 7.00 to 8.00
//
Molecule: Cc1cc(Nc2nc(C3(c4ccc(F)cc4)CCOCC3)nc3ccccc23)n[nH]1
Value: ≥ 8.00
//
Molecule: Cc1cc(Nc2nc([C@]3(c4ccc(F)cc4)C[C@@H](O)C3)nc3ccccc23)n[nH]1
Value: 7.00 to 8.00

Okay, now this molecule:
Exercise: // map `Cc1cc(Nc2nc([C@]3(c4ccc(F)cc4)C[C@H](O)C3)nc3ccccc23)n[nH]1` to recorded pKd (system: TYK2 (Homo sapiens))
Key: 7.00 to 8.00

* * *

Consider compounds characterized by their Kd with JAK2 (Homo sapiens).
Sequence (O60674 whole entry): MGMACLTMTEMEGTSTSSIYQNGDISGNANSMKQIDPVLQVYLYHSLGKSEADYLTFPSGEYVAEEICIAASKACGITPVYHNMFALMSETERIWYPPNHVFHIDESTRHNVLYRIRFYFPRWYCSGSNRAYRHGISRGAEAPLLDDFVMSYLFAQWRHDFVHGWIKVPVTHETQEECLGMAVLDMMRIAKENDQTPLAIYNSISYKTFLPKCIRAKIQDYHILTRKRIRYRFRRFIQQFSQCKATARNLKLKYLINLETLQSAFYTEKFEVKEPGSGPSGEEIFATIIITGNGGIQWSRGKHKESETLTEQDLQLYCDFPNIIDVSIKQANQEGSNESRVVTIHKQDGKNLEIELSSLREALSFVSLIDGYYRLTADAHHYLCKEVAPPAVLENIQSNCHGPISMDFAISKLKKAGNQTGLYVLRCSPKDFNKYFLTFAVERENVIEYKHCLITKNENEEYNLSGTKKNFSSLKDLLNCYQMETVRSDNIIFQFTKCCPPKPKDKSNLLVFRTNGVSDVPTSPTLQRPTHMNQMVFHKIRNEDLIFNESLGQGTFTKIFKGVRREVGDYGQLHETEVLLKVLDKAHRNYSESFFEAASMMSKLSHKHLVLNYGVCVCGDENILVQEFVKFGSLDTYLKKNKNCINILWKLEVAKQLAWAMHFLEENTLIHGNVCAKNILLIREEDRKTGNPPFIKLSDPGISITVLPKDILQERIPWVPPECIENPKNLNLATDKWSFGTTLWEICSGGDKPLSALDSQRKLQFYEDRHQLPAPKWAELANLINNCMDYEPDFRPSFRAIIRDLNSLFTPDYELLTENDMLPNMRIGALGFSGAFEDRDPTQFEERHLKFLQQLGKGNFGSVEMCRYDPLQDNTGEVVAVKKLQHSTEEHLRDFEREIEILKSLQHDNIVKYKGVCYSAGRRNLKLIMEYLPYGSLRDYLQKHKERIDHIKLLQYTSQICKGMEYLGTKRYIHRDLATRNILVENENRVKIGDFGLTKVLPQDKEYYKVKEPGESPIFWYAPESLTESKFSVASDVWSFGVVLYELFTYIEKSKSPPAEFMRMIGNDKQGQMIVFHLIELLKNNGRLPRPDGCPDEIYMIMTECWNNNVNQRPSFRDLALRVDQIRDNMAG

Exercise: Name the recorded Kd for `Cc1cc(Nc2nc([C@]3(c4ccc(F)cc4)C[C@@H](F)C3)nc3ccccc23)n[nH]1` .
Key: 1 to 10 nM

Exercise: Name the recorded Kd for `Cc1cc(Nc2nc([C@]3(c4ccc(F)cc4)C[C@H](O)C3)nc3ccccc23)n[nH]1` .
Key: ≤ 1 nM

Exercise: Name the recorded Kd for `Cc1cc(Nc2nc(C3(c4ccc(F)cc4)CCOCC3)nc3ccccc23)n[nH]1` .
Key: 1 to 10 nM

Exercise: Name the recorded Kd for `Cc1cc(Nc2nc([C@]3(c4ccc(F)cc4)C[C@@H](O)C3)nc3ccccc23)n[nH]1` .
Key: ≤ 1 nM
